Ref: the supplement of paper PMC6555819

# System: RARg:RXRa (NR concentration 270 nM, RXRa partner concentration 90 nM)
# measurement-protocol: PBM binding z-score (relative to random genomic background probes); higher = stronger binding; sequences stand for … in GC…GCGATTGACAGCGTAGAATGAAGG
observation-type: PBM binding z-score
Note: the reply should be a number with no unit written.

Use the examples below as a reference point.
seq-string	PBM binding z-score
TCTGCTTGGTCAGTTGGTCAGCTAACGAGCTGCC	-0.172
CCTACTGGGCCAAAAAGGTCATTGACGCCGATAA	4.59
TGAATGAGGTTATAAGATCAAGGAACGTTGCAAA	1.58
TCAGATAGGTAAACAGGTGAAAGTCCGTAAGTTA	0.678
ACTAGCAGGCCAAGGGTCACTCCAGATTAGTCCG	3.77

Given GCATAAAGGTAATACAAGGTGAAAGTCCGATTGT , respond with its PBM binding z-score. 1.15

Given GCAGACAGGTGAAACGCCGGTAACTCAGGGTGGC , respond with its PBM binding z-score. 0.644

Given CGTCCAAGGTCAAACGTCAGTGAAGAGATGACGG , respond with its PBM binding z-score. 6.09

Given ATCTAAAGGTCGAGGTGAGTATAGAGAAAGGGAA , respond with its PBM binding z-score. 4.54

Given CGAACTAGGTCATCCTGGACAGTGAATACATTGA , respond with its PBM binding z-score. 3.82

Given TGTCAAAGTTCAAAGGTAACGGAAGTATCCACAC , respond with its PBM binding z-score. 6.56

Given GCAGACAGGTGAAACGCAGGTAACTCAGGGTGGC , respond with its PBM binding z-score. 0.712

Given AGTCAAAGTTAACTAGGTAACGTAAGATTCAGCT , respond with its PBM binding z-score. 0.302
